Value source: PubChem BioAssay AID1159580

Measurement Notes: chemical genetic growth profiling, strain panel (AID 1159580);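 further: tested at 20 µM; growth read once vehicle control cultures reached saturation at 30 °C; lower values mean less growth of the strain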
Measurement Conditions: S. cerevisiae deletion strains, growth OD, locus YKR001C, strain vps1
Among all 5,500 compounds or so, about 2,000 (36%) were called active. Inconclusive results (about 18%) are left out. No stated cut-off is given here; in the data, active means normalized growth mostly below about 0.91 (no sharp cut-off); inconclusive means no clear call, values can overlap the other calls; inactive means mostly above about 0.92. Some of the results follow.
Please state which outcome applies, choosing from t for active, f for inactive

Problem: Hello, I am checking results. What call was entered for O=C(CCc1ccc(O)cc1)c1c(O)cc(O)cc1O ?
Result: f

Problem: Given COc1cc([C@@H]2c3cc4c(cc3[C@H](O)[C@H]3COC(=O)[C@H]23)OCO4)cc(OC)c1OC , state the outcome it received in this test.
Result: f

Problem: Which outcome was assigned to COc1ccc(NS(=O)(=O)c2ccc(N)cc2)nn1 in this test?
Result: f

Problem: I would be grateful if you could indicate the recorded call for C[C@]12[C@H](O)CC3C(CC[C@@H]4C[C@@H](O)CC[C@]34C)[C@@]1(O)CC[C@@H]2C1=CC(=O)OC1 (some centres not stated) .
Result: f

Problem: Please let me know the test result on file for Cn1cnc2c1c(=O)[nH]c(=O)n2C .
Result: f

Problem: Which outcome was assigned to O=C(/C=C/c1ccccc1)c1c(O)cc(O)cc1O in this test?
Result: f

Problem: State the result this test recorded for CC(C)N1C(=O)c2ccccc2NS1(=O)=O .
Result: f

Problem: # lookup: test call for CCCCCC/C=C\CCCCCCCc1cccc(O)c1C(=O)O
Result: f

Problem: Fill in: this test's call for CC[C@H]1OC(=O)[C@H](C)[C@@H](O[C@H]2C[C@@](C)(OC)[C@@H](O)[C@H](C)O2)[C@H](C)[C@@H](O[C@@H]2O[C@H](C)C[C@H](N(C)C)[C@H]2O)[C@](C)(O)C[C@@H](C)/C(=N/OCOCCOC)[C@H](C)[C@@H](O)[C@]1(C)O is ___
Result: f

Problem: Returns: the outcome recorded for O=C(O)CC[N+](=O)[O-] in this assay.
Result: f

Problem: // param item: COC(=O)C[C@H]1C(C)(C)[C@H](O)[C@@H]2CC3=C4CC(O)O[C@@H](c5ccoc5)[C@]4(C)CCC3[C@@]1(C)C2=O (some centres not stated) ; yields the recorded call
Result: f

Problem: What did this assay record as the result for CCC[C@@H]1C[C@@H](C(=O)N[C@H]([C@H]2O[C@H](SC)[C@H](O)[C@@H](O)[C@H]2O)[C@H](C)O)N(C)C1 ?
Result: f

Problem: // outcome(item) with item = CC(=O)CCCCn1c(=O)c2c(ncn2C)n(C)c1=O
Result: f

Problem: Outcome logged for COc1cc(O)ccc1C(C)=O in this assay:
Result: f

Problem: What is the recorded call for this compound in the test? O=c1c(O)c(-c2ccccc2)oc2ccccc12
Result: f

Problem: So what was the verdict on C[N+]1(C)CCCC(OC(=O)C(O)(c2ccccc2)c2ccccc2)C1 (configuration not stated) in this test?
Result: f

Problem: Recorded test outcome, item C[C@]12CC[C@@H](O)C[C@H]1CCc1ccccc12
Result: f

Problem: Tell me the assay call for ClC1C(Cl)C(Cl)C(Cl)C(Cl)C1Cl (configuration not stated) please.
Result: t

Problem: What is the recorded call for this compound in the test? O=c1c(O)c(-c2ccccc2)oc2ccc3occc3c12
Result: t

Problem: State the result this test recorded for Cn1c(=O)c2c(ncn2CCCl)n(C)c1=O .
Result: f

Problem: Assay result, entry Cn1c(=O)c2c(ncn2CCO)n(C)c1=O — outcome?
Result: f

Problem: For CN(C)CCC[C@@]1(c2ccc(F)cc2)OCc2cc(C#N)ccc21 , which call appears in the assay record?
Result: f

Problem: Tell me the recorded outcome of this test for CNC(C)(C)Cc1ccccc1 .
Result: f

Problem: Which outcome was assigned to Cn1c(=O)[nH]c2nc[nH]c2c1=O in this test?
Result: f

Problem: Would you mind telling me which call this test gave CC(=O)Nc1c(I)cc(I)c(C(=O)O)c1I ?
Result: f

Problem: I would be grateful if you could indicate the recorded call for COc1ccc(-c2c(O)c3c(OC)c4c(cc3oc2=O)OC(C)(C)C=C4)cc1 .
Result: f

Problem: Assay result, entry COc1ccc(/C=C/c2cc(O)cc(O[C@@H]3O[C@H](CO)[C@@H](O)[C@H](O)[C@H]3O)c2)cc1 — outcome?
Result: f

Problem: What is the recorded call for this compound in the test? CC(=O)OCC1=C(C(=O)O)N2C(=O)[C@@H](NC(=O)CSc3ccncc3)[C@H]2SC1
Result: f

Problem: Hi, do you know how C=C[C@H]1CN2CC[C@H]1C[C@H]2[C@H](O)c1ccnc2ccccc12 came out in this test?
Result: f

Problem: Hello, I am checking results. What call was entered for C=C(C)C1Cc2c(ccc3c(=O)c4c(oc23)COc2cc(OC)c(OC)cc2-4)O1 (configuration not stated) ?
Result: f

Problem: GET /call?item= CC(C)=CCC/C(C)=C/CO returns the recorded outcome of this test.
Result: f

Problem: Returns: the outcome recorded for CC(C)[C@@H]1CC[C@@H](C)C[C@H]1OC(=O)c1ccccc1 in this assay.
Result: f
